This collection of values is drawn from patent US20120010075A1.

- Test system: Leptosphaeria nodorum (LEPTNO)
- MEASUREMENT_PROTOCOL: In vitro fungitoxicity of hydrazones with and without copper towards Leptosphaeria nodorum (Example 26)
- Format: cell-based
- ASSAY_CONTEXT: copper-plus medium (CuCl2 10 μM); test compound Concn. 0.05 μg/mL; 72 h at 25° C.
// reported LEPTNO % Inhn. Plus Copper Observed per item
# output: bare number, implied unit %

>>> df
                                   compound  unit_of_measure  obs_value
0  C/C(=N\NC(=O)c1ccccc1O)c1cccc(Cl)c1O [Example 503]                %       97.0
1  COc1cccc(/C(C)=N/NC(=O)c2ccccc2O)c1O [Example 468]                %       98.1

Next item in the queue.
LEPTNO % Inhn. Plus Copper Observed for C/C(=N\NC(=O)c1ccc(Br)cc1)c1cccc([N+](=O)[O-])c1O [Example 522] is 97.3

* * *

Catalogue of compounds with associated melting point

Worked cases, answers included:
>>> df
                            compound_smiles  experimental_endpoint      obs_value
0  COc1cc(O)c(/C(C)=N/NC(=O)c2cccc(Cl)c2)c(OC)c1          melting point  206 to 215 °C
1  O=C(N/N=C/c1cc(C(F)(F)F)cc(Cl)c1O)c1ccccc1          melting point  216 to 222 °C
2  COc1ccc(/C(C)=N/NC(=O)c2ccc(C)cc2)c(O)c1OC          melting point  245 to 249 °C
3  O=C(N/N=C/c1cccc(C(F)(F)F)c1O)c1cccc(Cl)c1          melting point  185 to 187 °C

melting point recorded for this compound, C/C(=N\NC(=O)Cc1ccc(F)cc1)c1cc(Cl)cc(Cl)c1O , is 209 to 213 °C

* * *

- Test system: Leptosphaeria nodorum (LEPTNO)
- MEASUREMENT_PROTOCOL: In vitro fungitoxicity of hydrazones with and without copper towards Leptosphaeria nodorum (Example 26)
- Assay type: cell-based
- ASSAY_CONTEXT: Parastagonospora nodorum, 72 h, copper-minus medium; test compound Concn. 0.05 μg/mL; 72 h at 25° C.; read-out: LEPTNO % Inhn. Minus Copper Observed
EXPERIMENTAL_ENDPOINT: inhibition of growth at 0.05 µg/mL (%)
Quick reminder: number only, in %, skip the unit.

Use the examples below as a reference point.
                            compound_smiles                 subject_of_test  obs_value
0  COc1ccc(C(=O)N/N=C(\C)c2cc(C(F)(F)F)ccc2O)cc1  Leptosphaeria nodorum (LEPTNO)        5.1
1  C/C(=N\NC(=O)c1ccc(C(F)(F)F)cc1)c1cccc(Cl)c1O  Leptosphaeria nodorum (LEPTNO)        0.5
2       O=C(N/N=C/c1cccc(Cl)c1O)c1ccc(F)cc1  Leptosphaeria nodorum (LEPTNO)       34.8
3  Cc1ccc(C(=O)N/N=C/c2cccc(C(F)(F)F)c2O)c(O)c1  Leptosphaeria nodorum (LEPTNO)        8.8
4       O=C(N/N=C/c1ccc(Cl)cc1O)c1ccc(F)cc1  Leptosphaeria nodorum (LEPTNO)        4.2
5  Cc1ccc(C(=O)N/N=C/c2cc(C(F)(F)F)ccc2O)c(O)c1  Leptosphaeria nodorum (LEPTNO)       13.2

Now for another entry.
inhibition of growth at 0.05 µg/mL reading for C/C(=N\NC(=O)c1ccccc1C)c1cc(C)ccc1O : 3.8

* * *

EXPERIMENTAL_ENDPOINT: melting point

>>> print(df.to_string())
                                   compound      obs_value
0      C/C(=N\NC(=O)c1ccccc1C)c1cccc(Cl)c1O  193 to 198 °C
1  CC(C)c1ccc(C(=O)N/N=C/c2cc(Cl)cc(Cl)c2O)cc1 [Example 41]  261 to 263 °C

The reported melting point of the compound O=C(N/N=C/c1c(O)cccc1C(F)(F)F)c1ccccc1 was 228 to 230 °C

Lookup result for C/C(=N\NC(=O)c1ccccc1)c1cc(Br)cc(Br)c1O ; measured melting point: 242 to 245 °C

* * *

We begin with a simple list: items and their reported inhibition of growth at 0.05 µg/mL.
- Test system: Leptosphaeria nodorum (LEPTNO)
- MEASUREMENT_PROTOCOL: In vitro fungitoxicity of hydrazones with and without copper towards Leptosphaeria nodorum (Example 26)
- Assay type: cell-based
- ASSAY_CONTEXT: Parastagonospora nodorum, 72 h, compound 0.05 μg/mL, copper-minus medium, 72 h at 25° C.; read-out: LEPTNO % Inhn. Minus Copper Observed
Respond numerically; units are % and should not be typed.

As a guide, the following entries are already answered.
In [3]: df
Out[3]:
                            compound_smiles               experimental_endpoint  obs_value
0  COc1cccc(C(=O)N/N=C/c2cc(Cl)cc(Cl)c2O)c1C  inhibition of growth at 0.05 µg/mL        8.9
1    O=C(N/N=C/c1cc(Cl)cc(Cl)c1O)c1ccccc1Br  inhibition of growth at 0.05 µg/mL        5.6

We next turn to a different molecule, shown below.
Measured inhibition of growth at 0.05 µg/mL, O=C(N/N=C/c1cc(Cl)cc(Cl)c1O)c1cccc(Br)c1 : 2.6

* * *

Measured melting point, listed per entry.

Summary for this compound, O=C(N/N=C/c1cc(Cl)cc(Cl)c1O)c1cccc([N+](=O)[O-])c1 : melting point is 234 to 237 °C

* * *

- Test system: Phytophthora infestans
- Format: in vivo, Phytophthora infestans on tomato
- ASSAY_CONTEXT: hydrazone 50 ppm + 50 μM CuCl2.2H2O, applied 24 h before inoculation, assessed 7 days after inoculation, tomato
Threshold check on TLB % Control: strictly below 80% is true; on or above 80% is false.

Solved cases (3 shown):
>>> df
                                   molecule         subject_of_test  class_label
0        O=C(N/N=C/c1cc(Br)ccc1O)c1ccccc1Cl  Phytophthora infestans         true
1  Cc1ccc(C(=O)N/N=C/c2cc(Cl)cc(Cl)c2O)c(Br)c1  Phytophthora infestans         true
2           Cc1cccc(C(=O)N/N=C/c2ccccc2O)c1  Phytophthora infestans         true

QUERY: Answer whether the molecule O=C(N/N=C/c1cc(Cl)cc(Br)c1O)c1ccc(C(F)(F)F)cc1 has TLB % Control strictly less than 80%
RESULT: false

QUERY: Confirm or reject: TLB % Control of C/C(=N\NC(=O)c1cccc(Cl)c1)c1ccccc1O lies strictly below 80%
RESULT: true

QUERY: Lab log: compare recorded TLB % Control with 80%; is it strictly lower for C/C(=N\NC(=O)c1ccc(C)cc1)c1ccccc1O ?
RESULT: true

QUERY: Quick check: TLB % Control of O=C(N/N=C/c1cc(Cl)cc(Cl)c1O)c1ccccc1F under 80%?
RESULT: false

QUERY: Regarding COc1cc(OC)cc(C(=O)N/N=C/c2cc(Cl)cc(Cl)c2O)c1 , kindly confirm whether its TLB % Control is beneath 80%.
RESULT: true

QUERY: Determine if O=C(N/N=C/c1cc(Cl)cc(Cl)c1O)c1cccc(Cl)c1 shows TLB % Control strictly lower than 80%.
RESULT: false

QUERY: Please let me know if CC(C)c1ccc(C(=O)N/N=C/c2cc(Cl)cc(Cl)c2O)cc1 [Example 41] shows TLB % Control below 80%.
RESULT: false

QUERY: Take the molecule O=C(N/N=C/c1cc(Cl)cc(Cl)c1O)c1ccc(Cl)cc1Cl and say whether its TLB % Control is less than 80%.
RESULT: true

QUERY: API: query returns whether the molecule falls strictly under 80% in TLB % Control. Query: COc1ccc(O)c(/C(C)=N/NC(=O)c2ccccc2C)c1
RESULT: true

QUERY: Please indicate whether the reported TLB % Control of C/C(=N\NC(=O)c1cccc(I)c1)c1ccccc1O [Example 13] is strictly below 80%.
RESULT: true

* * *

EXPERIMENTAL_ENDPOINT: melting point

Field: example entries. Status: answers known.
>>> df
                            compound_smiles  experimental_endpoint      obs_value
0   COc1ccc(C(=O)N/N=C(\C)c2cc(Br)ccc2O)cc1          melting point  202 to 252 °C
1  O=C(N/N=C/c1cc(C(F)(F)F)cc(Cl)c1O)c1ccccc1O          melting point  258 to 260 °C
2  C/C(=N\NC(=O)c1ccc(C(F)(F)F)cc1)c1cc(Cl)cc(Cl)c1O          melting point  237 to 238 °C

Moving on to another compound below.
Briefly, melting point measured for COc1ccc(C(=O)N/N=C(\C)c2ccc(OC)c(OC)c2O)cc1 : 230 to 232 °C
